Tested on: Staphylococcus aureus
procedureDetails: Antibacterial activity was determined against clinically isolated Levofloxacin-methicillin resistant Staphylococcus aureus (LVFX-r MRSA) strains (74 strains)
Type: functional
*1 amine or outer side, *2 acyl side, *3 side chain or, on linkers, in order; H or OH if unused. Where a SMILES comes first, the peptide text is derived from it. Bridges are numbered along the chain shown (N, C = ends). [ ]: non-standard residue; d: D form. The star is where a group is joined. X1 = O=C1C[C@@H](C(=O)[*:2])N([*:1])C[C@H]1CS[C@@H]1CN2CCC1CC2; NMePhe(4-NMe2) = CN[C@@H](Cc1ccc(N(C)C)cc1)C(=O)O; Picolinoyl(3-OH) = O=C(c1ncccc1O)*; Phg = N[C@H](C(=O)O)c1ccccc1; dAbu = CC[C@@H](N)C(=O)O
Criterion: MIC50 strictly less than 1 µg/mL. Met: condition met. Not met: condition not met.

compound	labelClass
CC(=O)NCC1CN(c2ccc(N3CCOCC3)c(F)c2)C(=O)O1 (single isomer, unassigned)	condition not met
NCC[C@H](O)C(=O)N[C@@H]1C[C@H](N)[C@@H](O[C@H]2O[C@H](CN)CC[C@H]2N)[C@H](O)[C@H]1O[C@H]1O[C@H](CO)[C@@H](O)[C@H](N)[C@H]1O	condition not met
Cc1c(N2C[C@@H](F)[C@@H](C3(N)CC3)C2)c(F)c(N)c2c(=O)c(C(=O)O)cn([C@@H]3C[C@@H]3F)c12	condition met
CCN(CC)CCS(=O)(=O)[C@@H]1CCN2C(=O)c3coc(n3)CC(=O)C[C@H](O)/C=C(C)/C=C/CNC(=O)/C=C/[C@@H](C)[C@@H](C(C)C)OC(=O)[C@@H]12.CC[C@H]1NC(=O)[C@@H](NC(=O)c2ncccc2O)[C@@H](C)OC(=O)[C@H](c2ccccc2)NC(=O)[C@@H]2CC(=O)[C@H](CS[C@@H]3CN4CCC3CC4)CN2C(=O)[C@H](Cc2ccc(N(C)C)cc2)N(C)C(=O)[C@@H]2CCCN2C1=O [QUINUPRISTIN/DALFOPRISTIN] ({Picolinoyl(3-OH)}-T[dAbu]P[NMePhe(4-NMe2)][X1][Phg]; ester 1-C)	condition met
CO/N=C1\CN(c2nc3c(cc2F)c(=O)c(C(=O)O)cn3C2CC2)CC1CN (configuration not stated)	condition not met
COc1c(N2CCNC(C)C2)c(F)cc2c(=O)c(C(=O)O)cn(C3CC3)c12 (configuration not stated)	condition not met

====

System: Pseudomonas aeruginosa
procedureDetails: Antibacterial activity was determined against Pseudomonas aeruginosa PAO1 strain after incubation at 37 degrees C for 18 h
Format: functional
recordedMetric: MIC (µg/mL)

molecule	systemUnderTest	valueUnit	valueObserved
Cc1c(N2C[C@H](F)[C@@H](C3(N)CC3)C2)c(F)c(N)c2c(=O)c(C(=O)O)cn([C@@H]3C[C@@H]3F)c12	Pseudomonas aeruginosa	µg/mL	0.2
Cc1c(N2CC[C@@H](CN)C2)c(F)c(N)c2c(=O)c(C(=O)O)cn(C3C[C@@H]3F)c12 (single isomer, unassigned)	Pseudomonas aeruginosa	µg/mL	0.1
COc1c(N2CCNC(C)C2)c(F)cc2c(=O)c(C(=O)O)cn(C3CC3)c12 (stereo not drawn) [GATIFLOXACIN]	Pseudomonas aeruginosa	µg/mL	0.39

====

Test system: Pseudomonas aeruginosa
procedureDetails: Antibacterial activity was determined against Pseudomonas aeruginosa PAO1 strain after incubation at 37 degrees C for 18 h
Format: functional
Recorded MIC by entry
recordedMetric: MIC (mg/L)

1. Cc1c(N2C[C@@H](F)[C@@H](C3(N)CC3)C2)c(F)c(N)c2c(=O)c(C(=O)O)cn([C@@H]3C[C@@H]3F)c12 0.39
2. N[C@@H]1[C@H]2CN(c3nc4c(cc3F)c(=O)c(C(=O)O)cn4-c3ccc(F)cc3F)C[C@@H]12 0.2
3. COc1c(N2C[C@@H]3CCCN[C@@H]3C2)c(F)cc2c(=O)c(C(=O)O)cn(C3CC3)c12 0.2
4. O=C(O)c1cn(C2CC2)c2cc(N3CCNCC3)c(F)cc2c1=O 0.05
5. Cc1c(N2C[C@H](C3(N)CC3)C(F)(F)C2)c(F)c(N)c2c(=O)c(C(=O)O)cn([C@@H]3C[C@@H]3F)c12 0.2
6. Cc1c(N2CC[C@@H](C3(N)CC3)C2)c(F)c(N)c2c(=O)c(C(=O)O)cn([C@@H]3C[C@@H]3F)c12 0.1
7. Cc1c(N2CC[C@@H]([C@H](C)N)C2)c(F)c(N)c2c(=O)c(C(=O)O)cn([C@@H]3C[C@@H]3F)c12 0.05

====

procedureDetails: Lung concentration was determined after 5 min. of intravenous administration to rats (n=4) at dose of 20 mg/kg
Format: ADME, organism-based
Design: dose 20 mg/kg, route intravenous
runParameters: rat
recordedMetric: concentration at 5 min

1. Cc1c(N2C[C@@H](F)[C@@H](C3(N)CC3)C2)c(F)c(N)c2c(=O)c(C(=O)O)cn([C@@H]3C[C@@H]3F)c12 22 µg/mL

====

procedureDetails: Ratio of total concentration in kidney to that of serum after 6 hr of intravenous administration to rats (n=4) at dose of 20 mg/kg
Type: ADME, organism-based
Set-up: dose 20 mg/kg, route intravenous
runParameters: rat

molecule	Kp at 6 h
Cc1c(N2C[C@@H](F)[C@@H](C3(N)CC3)C2)c(F)c(N)c2c(=O)c(C(=O)O)cn([C@@H]3C[C@@H]3F)c12 [DQ-113]	3.7

====

procedureDetails: Total concentration in serum was determined after 6 hr of intravenous administration to rats (n=4) at dose of 20 mg/kg
Format: ADME, organism-based
Parameters: time < 6 hr, dose 20 mg/kg, route intravenous
runParameters: rat
recordedMetric: AUC at 6 h

1) Cc1c(N2C[C@@H](F)[C@@H](C3(N)CC3)C2)c(F)c(N)c2c(=O)c(C(=O)O)cn([C@@H]3C[C@@H]3F)c12 9300 ng·h/mL

====

Recorded MIC50 by entry
System: Enterococcus sp.
procedureDetails: Antibacterial activity was determined against clinically isolated vancomycin-B resistant enterococci (VRE) strains (10 strains)
Assay type: functional
recordedMetric: MIC50

compound	valueObserved
COc1c(N2CCNC(C)C2)c(F)cc2c(=O)c(C(=O)O)cn(C3CC3)c12 (centres undefined)	2 µg/mL
CN[C@H](CC(C)C)C(=O)N[C@H]1C(=O)N[C@@H](CC(N)=O)C(=O)N[C@H]2C(=O)N[C@H]3C(=O)N[C@H](C(=O)N[C@H](C(=O)O)c4cc(O)cc(O)c4-c4cc3ccc4O)[C@H](O)c3ccc(c(Cl)c3)Oc3cc2cc(c3O[C@@H]2O[C@H](CO)[C@@H](O)[C@H](O)[C@H]2O[C@H]2C[C@](C)(N)[C@H](O)[C@H](C)O2)Oc2ccc(cc2Cl)[C@H]1O	> 128 µg/mL
Cc1c(N2C[C@@H](F)[C@@H](C3(N)CC3)C2)c(F)c(N)c2c(=O)c(C(=O)O)cn([C@@H]3C[C@@H]3F)c12	0.25 µg/mL
CC(=O)N[C@@H]1[C@H](Oc2c3cc4cc2Oc2ccc(cc2Cl)[C@@H](O[C@@H]2O[C@@H](CO)[C@@H](O)[C@H](O)[C@@H]2NC(C)=O)[C@@H]2NC(=O)[C@H](NC(=O)[C@@H]4NC(=O)[C@H]4NC(=O)[C@@H](Cc5ccc(c(Cl)c5)O3)NC(=O)[C@H](N)c3ccc(O)c(c3)Oc3cc(O)cc4c3)c3ccc(O)c(c3)-c3c(O[C@H]4O[C@H](CO)[C@@H](O)[C@@H](O)[C@@H]4O)cc(O)cc3[C@@H](C(=O)O)NC2=O)O[C@@H](CO)[C@@H](O)[C@@H]1O	1 µg/mL

====

Test system: Staphylococcus aureus
procedureDetails: Antibacterial activity was determined against clinically isolated Levofloxacin-methicillin resistant Staphylococcus aureus (LVFX-r MRSA) strains (74 strains)
Type: functional
recordedMetric: MIC50 (µg/mL)

1. CC(=O)N[C@@H]1[C@H](Oc2c3cc4cc2Oc2ccc(cc2Cl)[C@@H](O[C@@H]2O[C@@H](CO)[C@@H](O)[C@H](O)[C@@H]2NC(C)=O)[C@@H]2NC(=O)[C@H](NC(=O)[C@@H]4NC(=O)[C@H]4NC(=O)[C@@H](Cc5ccc(c(Cl)c5)O3)NC(=O)[C@H](N)c3ccc(O)c(c3)Oc3cc(O)cc4c3)c3ccc(O)c(c3)-c3c(O[C@H]4O[C@H](CO)[C@@H](O)[C@@H](O)[C@@H]4O)cc(O)cc3[C@@H](C(=O)O)NC2=O)O[C@@H](CO)[C@@H](O)[C@@H]1O 0.5

====

procedureDetails: Half life in serum was determined after intravenous administration to rats (n=4) at dose of 20 mg/kg
Assay type: ADME, organism-based
Design: dose 20 mg/kg, route intravenous
runParameters: rat

compound	half-life (min)
Cc1c(N2C[C@@H](F)[C@@H](C3(N)CC3)C2)c(F)c(N)c2c(=O)c(C(=O)O)cn([C@@H]3C[C@@H]3F)c12 [DQ-113]	66
